These measurements were taken from patent US20240218374.

assayed system: Spike S1 & S2 ECD (SARS-CoV-2)
protocol text: filter
condition details: MBndU at 5; other dU Tyr-dU; dC Nap-dC; low plateau
property measured: pKd
Would you please state pKd, meaning minus log10 of the concentration in mol/L, as a bare number?

Record GGGANANNANGNGNNNGANNGNNNGGANG [26874-29_146] , field pKd: 9.21

* * *

assayed system: Spike S1 & S2 ECD (SARS-CoV-2) (UniProt P0DTC2)
protocol text: filter
condition details: MOEdU at 8; other dU Tyr-dU; dC Nap-dC; SB18T0.01, 37 C
property measured: Kd (nM)
Report as a plain number; the unit nM is understood.

Entry under test: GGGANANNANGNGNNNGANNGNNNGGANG [26874-29_108] . Its Kd was 0.72
